biological target: human HSL (Homo sapiens); construct: generate a full length human HSL ORF with a 3′-His6 tag; test: Human Hormone-Sensitive Lipase (HSL) enzyme inhibition assay (colorimetric, DMPT substrate); conditions: human full length HSL-His6, 2,3-dimercapto-1-propanol tributyrate substrate, 37° C. 20 minutes, absorbance at 405 nm; read-out: HSL hum IC50
Sequence (Q05469 whole entry): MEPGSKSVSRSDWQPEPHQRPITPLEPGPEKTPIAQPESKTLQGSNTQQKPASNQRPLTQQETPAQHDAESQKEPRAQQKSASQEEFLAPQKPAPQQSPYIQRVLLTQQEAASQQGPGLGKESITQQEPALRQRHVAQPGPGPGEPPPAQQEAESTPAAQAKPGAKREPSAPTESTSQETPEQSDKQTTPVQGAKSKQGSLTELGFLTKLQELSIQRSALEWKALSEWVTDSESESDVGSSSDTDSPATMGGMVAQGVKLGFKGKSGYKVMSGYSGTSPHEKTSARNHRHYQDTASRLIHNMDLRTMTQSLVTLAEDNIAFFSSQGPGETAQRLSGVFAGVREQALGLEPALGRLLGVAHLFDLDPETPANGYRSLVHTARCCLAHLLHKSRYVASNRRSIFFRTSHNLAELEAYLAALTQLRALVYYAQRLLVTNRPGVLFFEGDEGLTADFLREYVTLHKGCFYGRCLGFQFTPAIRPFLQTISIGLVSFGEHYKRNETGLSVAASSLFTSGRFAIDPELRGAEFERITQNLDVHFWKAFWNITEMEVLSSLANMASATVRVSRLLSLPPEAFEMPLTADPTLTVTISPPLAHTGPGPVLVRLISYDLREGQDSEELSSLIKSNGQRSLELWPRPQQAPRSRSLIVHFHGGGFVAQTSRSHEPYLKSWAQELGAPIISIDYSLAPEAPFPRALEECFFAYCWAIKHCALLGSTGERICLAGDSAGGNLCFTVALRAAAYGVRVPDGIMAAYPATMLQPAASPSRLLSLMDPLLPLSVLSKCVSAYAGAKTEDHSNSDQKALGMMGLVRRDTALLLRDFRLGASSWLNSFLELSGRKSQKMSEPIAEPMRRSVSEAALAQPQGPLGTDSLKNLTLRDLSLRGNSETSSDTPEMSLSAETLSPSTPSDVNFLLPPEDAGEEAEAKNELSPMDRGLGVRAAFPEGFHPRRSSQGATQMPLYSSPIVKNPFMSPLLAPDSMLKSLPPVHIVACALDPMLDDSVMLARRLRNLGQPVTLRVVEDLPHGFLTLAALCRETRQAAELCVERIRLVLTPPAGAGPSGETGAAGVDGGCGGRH
pIC50: −log10 of the molar value.
READOUT_KIND: pIC50

Record excerpt, results attached:
- CC(C)(C)c1ccc(N2CCC3(CCC(O)(Cn4ccccc4=O)CC3)C2=O)cc1 (stereo not shown) [Example 353]: 8.00
- CC(C)SC[C@]1(O)CC[C@]2(CCN(c3ccc(OCC(F)(F)F)cc3)C2=O)CC1 [Example 306]: 8.00
- CC(C)[C@]1(O)CC[C@@]2(CCN(c3ccc(O[C@H](C)C(F)(F)F)nc3)C2=O)CC1 [Example 151]: 5.73
- CCCC[C@]1(O)CC[C@]2(CCN(c3ccc(OC(F)(F)F)cc3)C2=O)CC1 [Example 66]: 7.52
- CCCOC[C@]1(O)CC[C@]2(CCN(c3ccc(O[C@H](C)C(F)(F)F)nc3)C2=O)CC1 [Example 312]: 8.00

[P] CSC[C@]1(O)CC[C@]2(CCN(c3ccc(OCC(F)(F)F)cc3)C2=O)CC1 [Example 293]
[Q] O=C1N(c2ccc(OCC(F)(F)F)cc2)CC[C@]12CC[C@](O)(COCC1CCC1)CC2 [Example 254]
[R] O=C1N(c2ccc(OC(F)(F)F)cc2)CC[C@]12CC[C@](O)(C(F)(F)F)CC2 [Example 113]
[S] C[C@@H](Oc1ccc(N2CC[C@]3(CC[C@@](O)(COCC(F)(F)F)CC3)C2=O)cc1)C(F)(F)F [Example 285]
[T] O=C(NCc1cnccn1)O[C@H]1CC[C@@]2(CCN(c3ccc(OC(F)(F)F)cc3)C2=O)CC1 [Example 28]
Reorder the items by pIC50, least to greatest. I would appreciate it if you listed the labels in the requested order.
R, Q, T, P, S
